Biological target: human Gal-3 (hGal-3) (Homo sapiens (Human))
Sequence (P17931 whole entry): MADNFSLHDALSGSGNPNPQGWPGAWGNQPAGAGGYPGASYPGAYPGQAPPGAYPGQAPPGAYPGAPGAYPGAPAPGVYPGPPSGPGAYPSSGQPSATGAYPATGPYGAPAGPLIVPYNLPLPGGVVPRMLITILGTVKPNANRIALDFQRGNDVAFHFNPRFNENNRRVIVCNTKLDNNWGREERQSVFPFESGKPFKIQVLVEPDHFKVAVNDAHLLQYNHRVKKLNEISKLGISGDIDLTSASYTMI
Experiment: Competitive binding assay: biotinylated hGal-3 binding to microplate-adsorbed asialofetuin (ASF)
Settings: Activity on hGal-3; mean values of several measurements; mixture of diastereomers measured where not separated
pIC50: −log10 of the molar value.
Parameter: pIC50

{"Molecule": "CO[C@@H]1[C@@H](n2cc(-c3ccc(Cl)c(Cl)c3)nn2)[C@@H](O)[C@@H](CO)O[C@H]1C(=O)N(c1cc(Br)cc(C#N)c1)[C@@H]1COC[C@H]1O [Example 57]", "Experimental target": "human Gal-3 (hGal-3) (Homo sapiens (Human))", "pIC50": 6.82}
{"Molecule": "CO[C@@H]1[C@@H](n2cc(-c3cc(F)c(Cl)c(F)c3)nn2)[C@@H](O)[C@@H](CO)O[C@H]1C(=O)N(c1cc(Br)cc(Br)c1)[C@@H]1COC[C@H]1O [Example 52]", "Experimental target": "human Gal-3 (hGal-3) (Homo sapiens (Human))", "pIC50": 7.07}
{"Molecule": "CO[C@@H]1[C@@H](n2cc(-c3cc(F)c(F)c(F)c3)nn2)[C@@H](O)[C@@H](CO)O[C@H]1C(=O)N(c1cc(F)cc(C#N)c1)[C@@H]1COC[C@H]1O [Example 40]", "Experimental target": "human Gal-3 (hGal-3) (Homo sapiens (Human))", "pIC50": 6.84}
{"Molecule": "CO[C@@H]1[C@@H](n2cc(-c3cc(F)c(F)c(F)c3)nn2)[C@@H](O)[C@@H](CO)O[C@H]1C(=O)N(c1cccc(Br)c1)[C@@H]1COC[C@H]1O [Example 31]", "Experimental target": "human Gal-3 (hGal-3) (Homo sapiens (Human))", "pIC50": 6.99}
